Values were extracted from ChEMBL document CHEMBL6087416.

tested on: Human immunodeficiency virus 1; assay: microbe, parasite or virus in culture; settings: Human immunodeficiency virus 1, IIIB, MT4, 120 h
Description: Antiviral activity against wild type HIV-1 IIIB infected in human MT4 cells assessed as protection against virus-induced cytopathic effect incubated for 5 days by MTT assay
VALUE_KIND: pEC50
// returns pEC50 (minus log10 of molar concentration), number only

Example compounds with recorded pEC50:
> print(dat)
                                  structure                     test.system  value.reported
1  Cc1cc(/C=C/C#N)cc(C)c1Oc1ccnc(Nc2ccc3nccn3c2)n1  Human immunodeficiency virus 1            8.70
2  Cc1cc(/C=C/C#N)cc(C)c1Oc1ccnc(Nc2ccc3c(c2)CN(S(C)(=O)=O)CC3)n1  Human immunodeficiency virus 1            8.22
3  Cc1cc(/C=C/C#N)cc(C)c1Oc1ccnc(Nc2ccc3c(c2)CN(C)C3=O)n1  Human immunodeficiency virus 1            7.51
4  Cn1c(Cn2ccc(C(F)(F)F)c(Oc3cc(Cl)cc(C#N)c3)c2=O)n[nH]c1=O  Human immunodeficiency virus 1            8.15

Next item in the queue.
Quick check: pEC50 of Cc1cc(/C=C/C#N)cc(C)c1Oc1ccnc(Nc2ccc3cnsc3c2)n1 ?
8.70
